Recorded Wt/L858R for the following molecules
Test system: EGFR-Wt
experiment_summary: MaMTH EGFR-interactor screen, lentiviral preys against EGFR-wildtype bait (interaction score)
Type: cell-based, human
test_conditions: ratio of EGFR-Wt mean to EGFR-L858R mean interaction score
Returns: the value as a bare number; no unit string appended.

Please review the following examples before continuing.
1) CAV1 (protein, UniProt Q03135 2-178, looked up) Caveolin-1: SGGKYVDSEGHLYTVPIREQGNIYKPNNKAMADELSEKQVYDAHTKEIDLVNRDPKHLNDDVVKIDFEDVIAEPEGTHSFDGIWKASFTTFTVTKYWFYRLLSALFGIPMALIWGIYFAILSFLHIWAVVPCIKSFLIEIQCISRVYSIYVHTVCDPLFEAVGKIFSNVRINLQKEI = 0.87
2) CRKL (protein, UniProt P46109 1-303, looked up) Crk-like protein: MSSARFDSSDRSAWYMGPVSRQEAQTRLQGQRHGMFLVRDSSTCPGDYVLSVSENSRVSHYIINSLPNRRFKIGDQEFDHLPALLEFYKIHYLDTTTLIEPAPRYPSPPMGSVSAPNLPTAEDNLEYVRTLYDFPGNDAEDLPFKKGEILVIIEKPEEQWWSARNKDGRVGMIPVPYVEKLVRSSPHGKHGNRNSNSYGIPEPAHAYAQPQTTTPLPAVSGSPGAAITPLPSTQNGPVFAKAIQKRVPCAYDKTALALEVGDIVKVTRMNINGQWEGEVNGRKGLFPFTHVKIFDPQNPDENE = 0.75
3) TXN (protein, UniProt P10599 2-105, looked up) Thioredoxin: VKQIESKTAFQEALDAAGDKLVVVDFSATWCGPCKMIKPFFHSLSEKYSNVIFLEVDVDDCQDVASECEVKCMPTFQFFKKGQKVGEFSGANKEKLEATINELV = 0.73
4) CAMLG (protein, UniProt P49069 1-296, looked up) Guided entry of tail-anchored …: MESMAVATDGGERPGVPAGSGLSASQRRAELRRRKLLMNSEQRINRIMGFHRPGSGAEEESQTKSKQQDSDKLNSLSVPSVSKRVVLGDSVSTGTTDQQGGVAEVKGTQLGDKLDSFIKPPECSSDVNLELRQRNRGDLTADSVQRGSRHGLEQYLSRFEEAMKLRKQLISEKPSQEDGNTTEEFDSFRIFRLVGCALLALGVRAFVCKYLSIFAPFLTLQLAYMGLYKYFPKSEKKIKTTVLTAALLLSGIPAEVINRSMDTYSKMGEVFTDLCVYFFTFIFCHELLDYWGSEVP = 1.00
5) LAT (protein, UniProt O43561 1-262, looked up) Linker for activation of …: MEEAILVPCVLGLLLLPILAMLMALCVHCHRLPGSYDSTSSDSLYPRGIQFKRPHTVAPWPPAYPPVTSYPPLSQPDLLPIPRSPQPLGGSHRTPSSRRDSDGANSVASYENEGASGIRGAQAGWGVWGPSWTRLTPVSLPPEPACEDADEDEDDYHNPGYLVVLPDSTPATSTAAPSAPALSTPGIRDSAFSMESIDDYVNVPESGESAEASLDGSREYVNVSQELHPGAAKTEPAALSSQEAEEVEEEGAPDYENLQELN = 1.61
6) MED28 (protein, UniProt Q9H204 1-178, looked up) Mediator of RNA polymerase II …: MAAPLGGMFSGQPPGPPQAPPGLPGQASLLQAAPGAPRPSSSTLVDELESSFEACFASLVSQDYVNGTDQEEIRTGVDQCIQKFLDIARQTECFFLQKRLQLSVQKPEQVIKEDVSELRNELQRKDALVQKHLTKLRHWQQVLEDINVQHKKPADIPQGSLAYLEQASANIPAPLKPT = 0.76
7) SH3GL3 (protein, UniProt Q99963 1-347, looked up) Endophilin-A3: MSVAGLKKQFHKASQLFSEKISGAEGTKLDDEFLDMERKIDVTNKVVAEILSKTTEYLQPNPAYRAKLGMLNTVSKIRGQVKTTGYPQTEGLLGDCMLKYGKELGEDSTFGNALIEVGESMKLMAEVKDSLDINVKQTFIDPLQLLQDKDLKEIGHHLKKLEGRRLDYDYKKKRVGKIPDEEVRQAVEKFEESKELAERSMFNFLENDVEQVSQLAVFIEAALDYHRQSTEILQELQSKLQMRISAASSVPRREYKPRPVKRSSSELNGVSTTSVVKTTGSNIPMDQPCCRGLYDFEPENQGELGFKEGDIITLTNQIDENWYEGMIHGESGFFPINYVEVIVPLPQ = 1.05
8) SLA (protein, UniProt Q13239 2-276, looked up) Src-like-adapter: GNSMKSTPAPAERPLPNPEGLDSDFLAVLSDYPSPDISPPIFRRGEKLRVISDEGGWWKAISLSTGRESYIPGICVARVYHGWLFEGLGRDKAEELLQLPDTKVGSFMIRESETKKGFYSLSVRHRQVKHYRIFRLPNNWYYISPRLTFQCLEDLVNHYSEVADGLCCVLTTPCLTQSTAAPAVRASSSPVTLRQKTVDWRRVSRLQEDPEGTENPLGVDESLFSYGLRESIASYLSLTSEDNTSFDRKKKSISLMYGGSKRKSSFFSSPPYFED = 2.40
9) CAV2 (protein, UniProt P51636 1-162, looked up) Caveolin-2: MGLETEKADVQLFMDDDSYSHHSGLEYADPEKFADSDQDRDPHRLNSHLKLGFEDVIAEPVTTHSFDKVWICSHALFEISKYVMYKFLTVFLAIPLAFIAGILFATLSCLHIWILMPFVKTCLMVLPSVQTIWKSVTDVIIAPLCTSVGRCFSSVSLQLSQD = 0.39

Now let's try a different one.
Problem: Name the reported Wt/L858R value associated with the molecule SH3GL2 (protein, UniProt Q99962 1-352, looked up) Endophilin-A1: MSVAGLKKQFHKATQKVSEKVGGAEGTKLDDDFKEMERKVDVTSRAVMEIMTKTIEYLQPNPASRAKLSMINTMSKIRGQEKGPGYPQAEALLAEAMLKFGRELGDDCNFGPALGEVGEAMRELSEVKDSLDIEVKQNFIDPLQNLHDKDLREIQHHLKKLEGRRLDFDYKKKRQGKIPDEELRQALEKFDESKEIAESSMFNLLEMDIEQVSQLSALVQAQLEYHKQAVQILQQVTVRLEERIRQASSQPRREYQPKPRMSLEFPTGDSTQPNGGLSHTGTPKPSGVQMDQPCCRALYDFEPENEGELGFKEGDIITLTNQIDENWYEGMLHGHSGFFPINYVEILVALPH
Result: 0.58
